biological target: full-length beta-Catenin (Uniprot ID P35222) (Homo sapiens, UniProt P35222); construct: 10 nM full-length beta-Catenin (Uniprot ID P35222); test: Fluorescence polarization IC50 (beta-catenin / 5FAM-TCF4 10-53 competition); type: binding; conditions: fluorescence polarization; read-out: beta-Catenin FP IC50
Sequence (P35222 whole entry): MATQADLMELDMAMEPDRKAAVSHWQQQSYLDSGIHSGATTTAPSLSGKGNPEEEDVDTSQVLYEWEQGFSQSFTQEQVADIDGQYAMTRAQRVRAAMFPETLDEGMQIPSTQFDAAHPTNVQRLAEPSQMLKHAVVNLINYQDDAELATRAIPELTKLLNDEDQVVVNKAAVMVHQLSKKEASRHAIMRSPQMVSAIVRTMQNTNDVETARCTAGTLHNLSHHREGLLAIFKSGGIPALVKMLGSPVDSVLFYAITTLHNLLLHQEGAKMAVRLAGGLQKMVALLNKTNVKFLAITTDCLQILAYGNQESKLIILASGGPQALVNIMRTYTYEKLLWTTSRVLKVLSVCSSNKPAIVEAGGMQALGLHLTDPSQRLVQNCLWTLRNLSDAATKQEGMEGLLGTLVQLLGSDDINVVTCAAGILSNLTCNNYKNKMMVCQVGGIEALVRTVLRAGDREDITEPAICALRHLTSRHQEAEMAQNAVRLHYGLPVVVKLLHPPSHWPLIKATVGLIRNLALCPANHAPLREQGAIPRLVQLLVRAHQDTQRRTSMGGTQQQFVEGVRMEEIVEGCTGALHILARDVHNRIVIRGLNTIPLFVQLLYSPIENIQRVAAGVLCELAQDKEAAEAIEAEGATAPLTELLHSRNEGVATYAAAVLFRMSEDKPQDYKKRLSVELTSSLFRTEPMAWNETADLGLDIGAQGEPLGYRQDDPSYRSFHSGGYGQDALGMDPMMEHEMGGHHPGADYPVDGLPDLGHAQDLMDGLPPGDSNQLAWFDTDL
recorded_metric: IC50 (nM)
State just the number; it will be interpreted in nM.

[Q] Bench note: what IC50 did CC(=O)N1CCC[C@]12CC=CCCCC1(CCCC=CCCCOC(=O)N3CC[C@@](C(=O)N[C@@H](Cc4ccccc4Cl)C(=O)N[C@@H](Cc4csc5ccccc45)C(=O)N[C@@H](CO)C(=O)N4CCC[C@H]4CO)(C3)NC(=O)[C@H](CC(C)C)NC(=O)[C@H](Cc3ccccc3)NC(=O)[C@H](C)NC(=O)[C@H](C)NC(=O)[C@H](Cc3cccc(C(=O)O)c3)NC(=O)[C@H](CC(=O)O)NC1=O)NC(=O)[C@H](CC(C)(C)C)NC(=O)[C@H](CC(=O)O)NC2=O (stereo partly shown) [I-1906] show?
[A] 23

* * *

experiment: Solubility in PBS; type: physicochemical; settings: Solubility (uM)
This listing pairs molecules with measured Solubility.
Please answer using the number first and the unit second.

Examples with their reported Solubility follow.
{"molecule": "CC(=O)N1CCC[C@]12CC=CCCCC1(CCCC=CCCCCCC[C@@](C)(C(=O)N[C@@H](Cc3cccc(F)c3)C(=O)N[C@@H](Cc3csc4ccccc34)C(N)=O)NC(=O)[C@H](CCC(N)=O)NC(=O)[C@H](Cc3ccsc3)NC(=O)[C@H](C)NC(=O)[C@H](C)NC(=O)[C@H](CCC(=O)O)NC(=O)[C@H](CC(=O)O)NC1=O)NC(=O)[C@H](C)NC(=O)[C@H](CC(=O)O)NC2=O (stereo partly drawn)", "recorded_metric": "Solubility", "observed_result": "33 µM"}
{"molecule": "CC(=O)N1CCC[C@]12CC=CCCCC1(CCCC=CCCCOC(=O)N3CC[C@@](C(=O)N[C@@H](Cc4c(F)c(F)c(F)c(F)c4F)C(=O)N[C@@H](Cc4csc5ccccc45)C(=O)N[C@@H](CCC(N)=O)C(N)=O)(C3)NC(=O)[C@H](CC(N)=O)NC(=O)[C@H](Cc3ccccc3)NC(=O)[C@H](C)NC(=O)[C@H](C)NC(=O)[C@H](CC(=O)O)NC(=O)[C@H](CC(=O)O)NC1=O)NC(=O)[C@H](CC(C)(C)C)NC(=O)[C@H](CC(=O)O)NC2=O (stereo partly drawn)", "recorded_metric": "Solubility", "observed_result": "46 µM"}

[Q] Bench note: what Solubility did CC(=O)N1CCC[C@]12CC=CCCCC1(CCCC=CCCCCCC[C@@](C)(C(=O)N[C@@H](Cc3ccc(C#N)cc3)C(=O)N[C@@H](Cc3csc4ccccc34)C(=O)N[C@@H](CCC(N)=O)C(N)=O)NC(=O)[C@H](C(C)C)NC(=O)[C@H](Cc3ccccc3)NC(=O)[C@H](C)NC(=O)[C@H](C)NC(=O)[C@H](CC(=O)O)NC(=O)[C@H](CC(=O)O)NC1=O)NC(=O)[C@H](C)NC(=O)[C@H](CC(=O)O)NC2=O (stereo partly drawn) show?
[A] 30 µM

* * *

This listing pairs molecules with measured IC50.
target: full-length beta-Catenin (Uniprot ID P35222) (Homo sapiens); construct: 10 nM full-length beta-Catenin (Uniprot ID P35222); experiment: Fluorescence polarization IC50 (beta-catenin / 5FAM-TCF4 10-53 competition); format: binding; settings: fluorescence polarization; read-out: beta-Catenin FP IC50
State just the number; it will be interpreted in µM.

Examples with their reported IC50 follow.
{"molecule": "CC(=O)N1CCC[C@]12CC=CCCCC1(CCCC=CCCCOC(=O)N3CC[C@@](C(=O)N[C@@H](Cc4ccccc4C(F)(F)F)C(=O)N[C@H](C(=O)N[C@@H](CCC(N)=O)C(N)=O)[C@@H](C)c4csc5ccccc45)(C3)NC(=O)[C@H](CC(C)C)NC(=O)[C@H](Cc3ccccc3)NC(=O)[C@H](C)NC(=O)[C@H](C)NC(=O)[C@H](Cc3cccc(C(=O)O)c3)NC(=O)[C@H](CC(=O)O)NC1=O)NC(=O)[C@H](CC(C)(C)C)NC(=O)[C@H](CC(=O)O)NC2=O (stereo partly shown)", "study_system": "full-length beta-Catenin (Uniprot ID P35222) (Homo sapiens)", "display_unit": "µM", "observed_result": 0.049}
{"molecule": "CC(=O)N1CCC[C@]12CC=CCCCC1(CCCC=CCCCCCC[C@@](C)(C(=O)N[C@@H](Cc3ccccc3)C(=O)N[C@@H](Cc3csc4ccccc34)C(=O)N[C@@H](Cc3c[nH]cn3)C(N)=O)NC(=O)[C@H](CCC(N)=O)NC(=O)[C@H](Cc3ccccc3)NC(=O)[C@H](C)NC(=O)[C@H](C)NC(=O)[C@H](CCC(=O)O)NC(=O)[C@H](CC(=O)O)NC1=O)NC(=O)[C@H](C)NC(=O)[C@H](CC(=O)O)NC2=O (stereo partly shown) [I-418]", "study_system": "full-length beta-Catenin (Uniprot ID P35222) (Homo sapiens)", "display_unit": "µM", "observed_result": 0.149}
{"molecule": "CC(=O)N1CCC[C@]12CC=CCCCC1(CCCC=CCCCOC(=O)N3CC[C@@](C(=O)N[C@@H](Cc4ccsc4)C(=O)N[C@@H](Cc4csc5ccccc45)C(=O)N[C@@H](CCC(N)=O)C(N)=O)(C3)NC(=O)[C@H](CC(C)C)NC(=O)[C@H](Cc3cccc(C(=O)O)c3)NC(=O)[C@H](C)NC(=O)[C@H](C)NC(=O)[C@H](Cc3c[nH]cn3)NC(=O)[C@H](CC(=O)O)NC1=O)NC(=O)[C@H](CC(C)(C)C)NC(=O)[C@H](CC(=O)O)NC2=O (stereo partly shown) [I-2123]", "study_system": "full-length beta-Catenin (Uniprot ID P35222) (Homo sapiens)", "display_unit": "µM", "observed_result": 0.012}
{"molecule": "CC(=O)N1CCC[C@]12CC=CCCCC1(CCCC=CCCCCCC[C@@](C)(C(=O)N[C@@H](Cc3ccccc3)C(=O)N[C@@H](Cc3csc4ccccc34)C(=O)N[C@@H](CCC(N)=O)C(N)=O)NC(=O)[C@H]([C@@H](C)O)NC(=O)[C@H](Cc3ccccc3)NC(=O)[C@H](C)NC(=O)[C@H](C)NC(=O)[C@H](CCC(=O)O)NC(=O)[C@H](CC(=O)O)NC1=O)NC(=O)[C@H](CC(C)C)NC(=O)[C@H](CC(=O)O)NC2=O (stereo partly shown) [I-622]", "study_system": "full-length beta-Catenin (Uniprot ID P35222) (Homo sapiens)", "display_unit": "µM", "observed_result": 0.23}
{"molecule": "CC(=O)N1CCC[C@]12CC=CCCCC1(CCCC=CCCCCCC[C@@](C)(C(=O)N[C@@H](Cc3ccccc3Cl)C(=O)N[C@@H](Cc3csc4ccccc34)C(=O)N[C@@H](CCC(N)=O)C(N)=O)NC(=O)[C@H](CCO)NC(=O)[C@H](Cc3ccccc3)NC(=O)[C@H](C)NC(=O)[C@H](C)NC(=O)[C@H](CC(=O)O)NC(=O)[C@H](CC(=O)O)NC1=O)NC(=O)[C@H](CC(C)(C)C)NC(=O)[C@H](CC(=O)O)NC2=O (stereo partly shown)", "study_system": "full-length beta-Catenin (Uniprot ID P35222) (Homo sapiens)", "display_unit": "µM", "observed_result": 0.033}
{"molecule": "CC(=O)N1CCC[C@]12CC=CCCCC1(CCCC=CCCCOC(=O)N3CC[C@@](C(=O)N[C@@H](Cc4ccccc4C(F)(F)F)C(=O)N[C@@H](Cc4ccc5c(c4)CCC5)C(=O)N[C@@H](C)C(N)=O)(C3)NC(=O)[C@H](CC(C)C)NC(=O)[C@H](Cc3ccccc3)NC(=O)[C@H](C)NC(=O)[C@H](CCC(N)=O)NC(=O)[C@H](Cc3cccc(C(=O)O)c3)NC(=O)[C@H](CC(=O)O)NC1=O)NC(=O)[C@H](CC(C)(C)C)NC(=O)[C@H](CC(=O)O)NC2=O (stereo partly shown)", "study_system": "full-length beta-Catenin (Uniprot ID P35222) (Homo sapiens)", "display_unit": "µM", "observed_result": 0.008}

[Q] Bench note: what IC50 did CC(=O)N1CCC[C@]12CC=CCCCC1(CCCC=CCCCCCC[C@@](C)(C(=O)N[C@@H](Cc3cccc(F)c3)C(=O)N[C@@H](Cc3csc4ccccc34)C(=O)N[C@@H](CCC(N)=O)C(N)=O)NC(=O)[C@H](CCC(N)=O)NC(=O)[C@H](Cc3cccc(C)c3)NC(=O)[C@H](C)NC(=O)[C@H](C)NC(=O)[C@H](CN(CC(=O)O)CC(F)(F)F)NC(=O)[C@H](CC(=O)O)NC1=O)NC(=O)[C@H](C)NC(=O)[C@H](CC(=O)O)NC2=O (stereo partly shown) show?
[A] 1.85

[Q] Bench note: what IC50 did CCCC[C@@H]1NC(=O)[C@H](CC(=O)O)NC(=O)[C@]2(CC=CCCCC3(CCCC=CCCCCCC[C@@](C)(C(=O)N[C@@H](Cc4ccccc4)C(=O)N[C@@H](Cc4csc5ccccc45)C(=O)N[C@@H](CCC(N)=O)C(N)=O)NC(=O)[C@H](C)NC(=O)[C@H](Cc4ccccc4)NC(=O)[C@H](C)NC(=O)[C@H](C)NC(=O)[C@H](CCC(=O)O)NC(=O)[C@H](CC(=O)O)NC3=O)NC1=O)CCCN2C(C)=O (stereo partly shown) show?
[A] 0.189

[Q] Bench note: what IC50 did CC(=O)N1CCC[C@]12CC=CCCCC1(CCCC=CCCCOC(=O)N3CC[C@@](C(=O)N[C@@H](Cc4ccccc4Cl)C(=O)N[C@@H](Cc4csc5ccccc45)C(=O)N[C@@H](CCC(N)=O)C(N)=O)(C3)NC(=O)[C@H]([C@@H](C)O)NC(=O)[C@H](Cc3ccccc3)NC(=O)[C@H](C)NC(=O)[C@H](C)NC(=O)[C@H](CN(CC(=O)O)CC(F)(F)F)NC(=O)[C@H](CC(=O)O)NC1=O)NC(=O)[C@H](CC(C)(C)C)NC(=O)[C@H](CC(=O)O)NC2=O (stereo partly shown) show?
[A] 0.018

[Q] Bench note: what IC50 did CC[C@H](C)[C@@H]1NC(=O)[C@H](CC(=O)O)NC(=O)[C@]2(CC=CCCCC3(CCCC=CCCCCCC[C@@](C)(C(=O)N[C@@H](Cc4ccccc4OC)C(=O)N[C@@H](Cc4csc5ccccc45)C(=O)N[C@@H](CCC(N)=O)C(N)=O)NC(=O)[C@H](CC(N)=O)NC(=O)[C@H](Cc4ccccc4)NC(=O)[C@H](C)NC(=O)[C@H](C)NC(=O)[C@H](CC(=O)O)NC(=O)[C@H](CC(=O)O)NC3=O)NC1=O)CCCN2C(C)=O (stereo partly shown) [I-549] show?
[A] 0.071
